Target: T1, human DLL3 (human, UniProt Q9NYJ7 27-492, limits assumed)
T1 construct: also called hDLL3; DLL3 protein
T1 sequence: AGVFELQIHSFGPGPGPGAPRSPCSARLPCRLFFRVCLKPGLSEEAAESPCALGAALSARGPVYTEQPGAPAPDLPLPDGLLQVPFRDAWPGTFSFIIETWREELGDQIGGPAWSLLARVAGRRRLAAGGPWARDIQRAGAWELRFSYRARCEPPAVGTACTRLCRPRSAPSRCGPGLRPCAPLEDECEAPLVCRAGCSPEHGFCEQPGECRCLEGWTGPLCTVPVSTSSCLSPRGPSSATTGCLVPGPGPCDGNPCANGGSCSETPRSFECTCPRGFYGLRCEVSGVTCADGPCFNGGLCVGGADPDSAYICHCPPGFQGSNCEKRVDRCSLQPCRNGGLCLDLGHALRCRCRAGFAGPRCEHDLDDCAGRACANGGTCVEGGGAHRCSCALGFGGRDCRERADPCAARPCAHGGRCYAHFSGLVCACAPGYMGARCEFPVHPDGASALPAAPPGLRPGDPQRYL
Experiment: screen on immobilized hDLL3 or h293-hDLL3 cells

| BINDER | binding result |
| --- | --- |
| SC16.118 (antibody, V domains shown, murine mAb) VH: EVQLQQSGPDLVKPGASVKISCKASGYSFTGYYMHWVKQSHGKSLEWIGRVNPNNGGTSYNQKFKGKAILTADKSSSTAYMELRSLTSEDSAVYYCARGSYDYAEGWGQGTLVTVSA VL: DIVLTQSPASLAVSLGQRATISCKASQSVDYDGDSYLTWYQQKPGQPPKLLIYAASNLESGIPARFSGSGSGTDFTLNIHPVEEEDAATYYCQQSNEDPYTFGGGTKLEIK | binds |
| SC16.22 (antibody, V domains shown, murine mAb) VH: QVQLQQPGAELVKPGASVKLSCKASGYTFTTYWMHWVKQRPGQGLEWIGEIDPSDSYTYYNQKFKGKATLTVDKSSSTAYMQLSSLTSEDSAVYYCARGDYGNPYAMDYWGQGSSVTVSS VL: DIQMTQTTSSLSASLGDRVTISCRASQDIKNYLNWYQQKPDGTVKPLIYYTSRVHSGVPSRFSGSGSGTDYSLTISNLEQEDIATYFCQQGYTLPFTFGSGTKLEIK | binds |

Data provenance: patent US20190201542A1
